- experimental-system: T1, GARS, endogenous in H929 multiple myeloma cells (human, UniProt P41250 37-739, limits assumed)
- T1 construct: Native protein pulled down from H929 lysates; also called Glycyl-tRNA synthetase; GlyRS
- T1 sequence: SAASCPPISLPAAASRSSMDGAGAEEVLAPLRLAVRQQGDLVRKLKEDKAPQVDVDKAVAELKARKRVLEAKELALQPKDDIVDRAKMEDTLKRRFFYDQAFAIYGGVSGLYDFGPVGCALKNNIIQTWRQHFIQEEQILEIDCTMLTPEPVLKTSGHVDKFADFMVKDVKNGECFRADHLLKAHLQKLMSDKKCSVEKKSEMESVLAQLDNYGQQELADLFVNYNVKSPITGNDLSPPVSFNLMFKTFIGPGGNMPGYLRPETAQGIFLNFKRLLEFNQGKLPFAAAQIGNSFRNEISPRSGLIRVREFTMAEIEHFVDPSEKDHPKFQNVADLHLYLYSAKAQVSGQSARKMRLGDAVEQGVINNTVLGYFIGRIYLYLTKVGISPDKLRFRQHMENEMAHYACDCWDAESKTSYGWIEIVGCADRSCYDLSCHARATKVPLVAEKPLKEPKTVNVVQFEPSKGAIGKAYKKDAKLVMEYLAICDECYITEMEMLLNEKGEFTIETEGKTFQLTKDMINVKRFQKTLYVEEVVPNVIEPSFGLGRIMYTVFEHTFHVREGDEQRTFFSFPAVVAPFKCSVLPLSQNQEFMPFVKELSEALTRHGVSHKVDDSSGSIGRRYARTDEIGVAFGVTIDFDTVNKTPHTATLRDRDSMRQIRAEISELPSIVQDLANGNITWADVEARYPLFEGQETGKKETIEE
- assay-remarks: flow cytometry, H929 + vehicle; None 513; surface target GARS putative
mAb binding (MFI) listing for selected binders.

Worked cases, mAb binding (MFI) given:
[
  {
    "binder": "HW-16 chimeric rabbit-human IgG1 LA/LA/PG (antibody, V domains shown, Fc-silenced (L234A/L235A/P329G) IgG1, kappa; Alexa Fluor 647-labeled in single-step flow cytometry; Cluster C-45) VH: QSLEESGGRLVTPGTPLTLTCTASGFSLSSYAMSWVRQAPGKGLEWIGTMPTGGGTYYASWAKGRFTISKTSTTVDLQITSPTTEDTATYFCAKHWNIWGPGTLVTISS VL: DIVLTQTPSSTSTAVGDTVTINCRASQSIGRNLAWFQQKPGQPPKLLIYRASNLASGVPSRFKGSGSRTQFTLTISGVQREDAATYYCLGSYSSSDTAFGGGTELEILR",
    "mAb binding (MFI)": 61100
  },
  {
    "binder": "HW-8 chimeric rabbit-human IgG1 LA/LA/PG (antibody, V domains shown, Fc-silenced (L234A/L235A/P329G) IgG1, kappa; Alexa Fluor 647-labeled in single-step flow cytometry; Cluster C-45) VH: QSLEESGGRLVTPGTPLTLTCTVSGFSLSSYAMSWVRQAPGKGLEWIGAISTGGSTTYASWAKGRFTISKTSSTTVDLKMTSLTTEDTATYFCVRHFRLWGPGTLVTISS VL: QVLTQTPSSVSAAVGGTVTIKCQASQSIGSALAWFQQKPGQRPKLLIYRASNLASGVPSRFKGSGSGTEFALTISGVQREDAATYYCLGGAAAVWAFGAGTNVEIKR",
    "mAb binding (MFI)": 16700
  },
  {
    "binder": "HW-28 chimeric rabbit-human IgG1 LA/LA/PG (antibody, V domains shown, Fc-silenced (L234A/L235A/P329G) IgG1, lambda; Alexa Fluor 647-labeled in single-step flow cytometry; Cluster C-45) VH: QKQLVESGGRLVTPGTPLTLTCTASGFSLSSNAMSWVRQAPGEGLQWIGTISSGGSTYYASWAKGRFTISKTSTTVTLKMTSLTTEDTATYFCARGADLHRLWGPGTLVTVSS VL: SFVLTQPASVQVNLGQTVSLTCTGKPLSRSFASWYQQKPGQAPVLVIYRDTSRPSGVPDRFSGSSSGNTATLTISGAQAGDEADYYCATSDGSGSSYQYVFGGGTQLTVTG",
    "mAb binding (MFI)": 44400
  },
  {
    "binder": "HW-81 chimeric rabbit-human IgG1 LA/LA/PG (antibody, V domains shown, Fc-silenced (L234A/L235A/P329G) IgG1, lambda; Alexa Fluor 647-labeled in single-step flow cytometry; Cluster C-45) VH: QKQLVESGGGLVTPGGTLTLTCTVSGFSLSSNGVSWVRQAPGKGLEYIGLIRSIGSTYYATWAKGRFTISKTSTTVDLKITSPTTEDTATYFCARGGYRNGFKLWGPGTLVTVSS VL: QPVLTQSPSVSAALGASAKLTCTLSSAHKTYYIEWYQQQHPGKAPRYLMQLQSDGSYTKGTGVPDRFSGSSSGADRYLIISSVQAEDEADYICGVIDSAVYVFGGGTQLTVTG",
    "mAb binding (MFI)": 682000
  },
  {
    "binder": "HW-56 chimeric rabbit-human IgG1 LA/LA/PG (antibody, V domains shown, Fc-silenced (L234A/L235A/P329G) IgG1, kappa; Alexa Fluor 647-labeled in single-step flow cytometry; Cluster C-45) VH: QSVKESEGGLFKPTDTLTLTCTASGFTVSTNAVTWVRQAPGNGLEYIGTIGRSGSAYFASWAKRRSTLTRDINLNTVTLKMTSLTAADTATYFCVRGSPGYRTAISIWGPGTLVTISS VL: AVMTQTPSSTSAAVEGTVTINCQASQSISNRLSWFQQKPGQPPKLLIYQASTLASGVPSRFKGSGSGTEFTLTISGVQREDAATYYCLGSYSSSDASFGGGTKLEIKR",
    "mAb binding (MFI)": 481000
  }
]

--- query ---
QUERY: Reported mAb binding (MFI) for HW-45 chimeric rabbit-human IgG1 LA/LA/PG (antibody, V domains shown, Fc-silenced (L234A/L235A/P329G) IgG1, lambda; Alexa Fluor 647-labeled in single-step flow cytometry; Prototype of cluster C-45) VH: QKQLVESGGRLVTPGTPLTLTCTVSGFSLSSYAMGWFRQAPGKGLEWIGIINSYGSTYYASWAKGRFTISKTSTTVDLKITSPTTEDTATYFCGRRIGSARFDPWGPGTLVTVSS VL: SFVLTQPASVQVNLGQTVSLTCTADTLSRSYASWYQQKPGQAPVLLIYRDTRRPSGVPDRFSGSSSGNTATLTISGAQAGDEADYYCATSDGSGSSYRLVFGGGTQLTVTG : what is it?
RESULT: 25400
